System: K-562 leukemia
PROTOCOL: NCI tumour cell line growth inhibition, 48 h; in the data active = GI50 below about 0.43 µM; inactive = the rest
Bench note: report the call from 1 for active, -1 for inactive

Observe how each entry below is paired with its result.
COc1cc2c(=O)n(CCCn3ccnc3)c3c4cc5c(cc4ccc3c2cc1OC)OCO5 : -1
O=C(NC1CCN(Cc2ccccc2)CC1)c1cc(C(=O)NC2CCN(Cc3ccccc3)CC2)cc(C(=O)NC2CCN(Cc3ccccc3)CC2)c1 : -1

Could you check what this test reported for C/C=C1\C(=O)O[C@@H]2C1C[C@@H]1O[C@H]2[C@H](C)CCC/C(C)=C/CC[C@@]1(C)O (some centres undefined) ?
-1

Could you check what this test reported for `NCCCn1c2c(c3cc4c(cc3c1=O)OCO4)C(=O)c1ccccc1-2` ?
1

Could you check what this test reported for `Oc1cccc(Cn2c(-c3cccc(O)c3O)nc3ccccc32)c1O` ?
-1

Could you check what this test reported for `CNC(=O)c1cncc(/C=C/c2c(C)cccc2C)c1` ?
-1

Could you check what this test reported for `COc1ccccc1N1CCN(C(=O)c2ccc(NS(=O)(=O)c3cccc4cccnc34)cc2)CC1` ?
-1

Could you check what this test reported for `N/C(=N\c1nc2ccccc2s1)NC(=O)Nc1ccccc1Cl` ?
1

Could you check what this test reported for CN(C)c1ccc2cc(-c3cc4c(oc3=O)-c3ccccc3OC4O)c(=O)oc2c1 (centres undefined) ?
-1

---

System: SW-620 colon
PROTOCOL: NCI tumour cell line growth inhibition, 48 h
QUANTITY NAME: TGI

Some solved cases for reference:
CCc1n[nH]c(=O)n1NC(=O)c1ccccc1C(=O)O : > 100 µM
CCn1cc(C(=O)N/N=C/c2cccc(F)c2)c(=O)c2cc(F)c(N3CCNC(C)C3)c(F)c21 (centres undefined) : 3.17 µM
Cc1ccc(/C=N/NC2=NCCN2)s1 : > 100 µM

Which TGI reading was recorded for the molecule `Cc1ccc(NC(=O)CC/C(CC(=O)c2ccc(Cl)cc2)=N\NC(=O)C(=O)NN)cc1C` ?
> 100 µM

---

Test system: MALME-3M melanoma
PROTOCOL: NCI tumour cell line growth inhibition, 48 h
Consider the following compounds; for each one, report its GI50.

COc1cc2c(=O)n(CCCn3ccnc3)c3c4cc5c(cc4ccc3c2cc1OC)OCO5 : 2020 nM

# map each compound to its GI50
1. O=C1C(Cl)=C(Nc2cccc(O)c2)C(=O)N1c1cccc(Cl)c1
2. COc1cccc(-c2nc(-c3ccc(NC(=O)c4ccccc4)cc3)[nH]c2-c2ccnc(Br)c2)c1
3. N#C/C(=C/C=C/c1ccccc1)S(=O)c1ccccc1 (stereo not given)
4. COc1c(B(O)O)cccc1-c1nc2c(F)cc3[nH]ncc3c2c2c1CCCC2

1. 51700 nM
2. 2860 nM
3. 796 nM
4. 3710 nM

---

Tested on: HCC-2998 colon
PROTOCOL: NCI tumour cell line growth inhibition, 48 h
QUANTITY NAME: GI50

NC(=O)c1cc(Cl)ccc1NC(=O)c1ccccc1-c1ccccc1 : 2.99 µM

# map each compound to its GI50
1. CN(C)c1ccc2cc(-c3cc4c(oc3=O)-c3ccccc3OC4O)c(=O)oc2c1 (stereo not given)
2. CCC1CCCCN1C(=S)N/N=C(\C)c1ccccn1 (stereo not given)
3. COc1ccccc1N1CCN(C(=O)c2ccc(NS(=O)(=O)c3cccc4cccnc34)cc2)CC1

6.99 µM
0.156 µM
> 100 µM
